assay: cAMP Responsive Elements (CRE) small molecule antagonists, cell-based qHTS assay (AID 1963591); conditions: CRE-bla HEK293T, beta-lactamase FRET ratio; series mostly up to 92.4 µM; further: potency means the concentration at half of the fitted maximal effect
Inconclusive results are not listed. Active and inactive are the calls of the source. The call rests on the fitted dose curve; in most records, active means well fitted inhibition curve with a large enough effect in the signal ratio in the repeat runs (not every such curve was filed as active); inconclusive means weak or mixed curves, or effect the other way; inactive means flat fitted curve, though single readings scatter; the % refers to the signal ratio.
endpoint label: Potency

- CC(COc1ccc(C(C)(C)C)cc1)OS(=O)OCCCl (stereo unspecified): 43.5 µM (active)

// input: 3 compounds below; output: Potency for each
1. O=CC=C(c1ccccc1)c1ccccc1
2. CCN(CC)CCNc1ccc(CO)c2sc3ccccc3c(=O)c12
3. O=S(=O)(c1cccc2cnccc12)N1CCCNCC1

## Output
24.5 µM (active)
26.6 µM (active)
29.8 µM (active)

Report Potency for every entry below.
1. CC(C)C[C@H](NC(=O)[C@H](Cc1ccccc1)NC(=O)c1cnccn1)B(O)O
2. Oc1ccc(C2(c3ccc(O)cc3)CC3CC2C2CCCC32)cc1 (stereo unspecified)

## Output
1. 0.944 µM (active)
2. 65.9 µM (active)
